# ASSAY NAME: Aqueous solubility of the compound at pH 6
# Format: physicochemical
# SETTINGS: buffer
EXPERIMENTAL ENDPOINT: solubility (µg/mL)

>>> value_measured("CN(Cc1nnc(-c2ccco2)o1)Cc1c(F)cccc1Cl.O=C(O)/C=C\\C(=O)O")
687

====

# ASSAY NAME: Aqueous solubility of the compound at pH 7.4
# Format: physicochemical
# SETTINGS: buffer
EXPERIMENTAL ENDPOINT: solubility thermodynamic (µg/mL)

>>> value_measured("CN(Cc1nnc(-c2ccco2)o1)Cc1c(F)cccc1Cl.O=C(O)/C=C\\C(=O)O")
717
